# Tested on: adult S. mansoni
# EXPERIMENT_SUMMARY: Phenotypic screen of adult S. mansoni worms, severity scores and descriptors
# Assay type: cell-based, Schistosoma mansoni
# CONDITION_SET: adult S. mansoni, 10 μM, 24 h; scale 0 (no activity) to 4 (maximal activity)
Items are presented alongside their recorded Severity Scores (10 μM) 24 h.
ENDPOINT: Severity Scores (10 μM) 24 h

>  <MOLECULE>
CN1CCN(c2ncc(-c3ccc4c(NC5CCC(N(C)C)CC5)ccnc4c3)cn2)CC1 (centres unmarked)

>  <RESULT>
0

$$$$
>  <MOLECULE>
CCN1CCN(c2ncc(-c3ccc4c(Nc5cnccn5)ccnc4c3)cn2)CC1

>  <RESULT>
1

$$$$
>  <MOLECULE>
CN1CCCN(S(=O)(=O)c2ccc(-c3ccc4c(Nc5ccc(Cl)cn5)ccnc4c3)cc2)CC1

>  <RESULT>
2

$$$$
>  <MOLECULE>
CN1C[C@H]2C[C@@H]1CN2c1ncc(-c2ccc3c(Nc4cnccn4)ccnc3c2)cn1

>  <RESULT>
1

$$$$
>  <MOLECULE>
CS(=O)(=O)N1CCN(c2ncc(-c3ccc4c(Nc5cnccn5)ccnc4c3)cn2)CC1

>  <RESULT>
0

$$$$
